The origin of these recorded values is patent US9980957B2.

- Tested on: six multiple myeloma cell lines, three plasma cell leukemia cell lines and one plasmacytoma
- RUN DESCRIPTION: CellTiter-Glo cell viability assay, all ten cell lines
- Type: cell-based
- CONDITION INFO: 72 h, mean of ten cell lines, read-out: IC50, mean of the ten cell lines

{"SMILES CODE": "O=C(/C=C/c1cccc(S(=O)(=O)Nc2ccccc2)c1)NO", "IC50, nM": 97}

----------
- Tested on: EJM multiple myeloma cell line
- RUN DESCRIPTION: CellTiter-Glo cell viability assay
- Type: cell-based
- CONDITION INFO: Homo sapiens, 72 h, read-out: PXD-101 IC50
pIC50: −log10 of the molar value.

{"MOLECULE": "O=C(/C=C/c1cccc(S(=O)(=O)Nc2ccccc2)c1)NO [PXD-101]", "pIC50": 6.91}
